System: TLR2 induced IL-6 in peripheral blood mononuclear cells (PBMCs)
Assay: PBMC TLR2 Induced IL-6 Assay
Type: cell-based, human
Details: Homo sapiens, PBMC, 5 h, human PBMCs, 10 μg/ml lipoteichoic acid for 5 hours, IL-6 by ELISA; value without asterisk; read-out: Cell IC50
Procedure: Peripheral blood mononuclear cells (PBMCs) were isolated from human blood containing the anti-coagulant EDTA (2.5 mM) by centrifugation over a FICOLL® gradient. PBMCs (250000 cells/well) were cultured in assay media (RPMI with 10% heat inactivated FCS) with compounds for 30 minutes at 37° C. in a 5% CO2 incubator. […] Supernatants were harvested and analyzed for IL-6 levels by ELISA (BD Biosciences, San Jose, Calif.). Inhibition was calculated as either an IC50 or EC50. […]
pIC50: −log10 of the molar value.
Quantity measured: pIC50

1. CC(C)(O)[C@H](F)CNC(=O)c1cnc(Nc2ccc3ncsc3c2)cc1NC12CCC(NS(=O)(=O)c3ccccc3)(CC1)C2 [Example 401]
6.48
2. CC(C)Nc1cc(Nc2ccc3nscc3c2)ncc1C(=O)NC[C@@H](F)C(C)(C)O [Example 56]
6.48
3. O=C(NC[C@@H](F)CO)c1cnc(Nc2ccc3ncsc3c2)cc1NC1CCCC1 [Example 150]
6.40
4. COc1ccc(CNc2cc(Nc3ccc4ncsc4c3)ncc2C(=O)NC[C@@H](F)C(C)(C)O)cc1 [Example 168]
6.25
5. CC(C)(O)[C@H](F)CNC(=O)c1cnc(Nc2ccn3ncc(F)c3n2)cc1NC1CC(F)(F)C1 [Example 265]
6.66
6. CC(C)(O)[C@H](F)CNC(=O)c1cnc(Nc2ccc3nccn3n2)cc1NC1CCOCC1 [Example 279]
6.53
7. CC1(O)CCC(NC(=O)c2cnc(Nc3ccc4ncsc4c3)cc2NC2CC2)CC1 (stereo not shown) [Example 169]
6.32
8. CC(=O)N[C@H]1CC[C@H](NC(=O)c2cnc(Nc3ccc4ncsc4c3)cc2NC(C)C)CC1 [Example 200]
7.03
9. CC(=O)NCCCNC(=O)c1cnc(Nc2ccc3ncsc3c2)cc1NC(C)C [Example 199]
6.26
10. CC(C)(O)[C@H](F)CNC(=O)c1cnc(Nc2ccc3[nH]c(=O)sc3c2)cc1NC1CCCC1 [Example 34]
6.82
11. CC(C)(F)CNc1cc(Nc2ccn3ncc(Cl)c3n2)ncc1C(=O)NC[C@@H](F)C(C)(C)O [Example 264]
6.42
12. CC(C)(O)[C@H](F)CNC(=O)c1cnc(Nc2ccc3nc(N)ccc3c2)cc1NC1CC1 [Example 75]
6.15
13. CC(C)(O)[C@H](F)CNC(=O)c1cnc(Nc2ccc3ncsc3c2)cc1NC1CCCC1O (stereo partly shown) [Example 335]
6.87
14. CC(C)Nc1cc(Nc2ccc3nccnc3c2)ncc1C(=O)NC[C@@H](F)C(C)(C)O [Example 55]
6.46
15. CC(C)Nc1cc(Nc2ccc3ncsc3c2)ncc1C(=O)N[C@H]1CC[C@H](NS(C)(=O)=O)CC1 [Example 204]
6.60
16. CC(C)(O)[C@H](F)CNC(=O)c1cnc(Nc2nc3ccnn3cc2F)cc1NC1CCOCC1 [Example 369]
6.07
